Tested system: T1, cMet-Fc fusion protein (extracellular domain of the cMet receptor expressed as an Fc-fusion protein) (human, UniProt P08581 25-932)
T1 construct: extracellular domain; also called soluble cMet-Fc-fusion protein; soluble cMet receptor; not shown: Fc part
T1 sequence (P08581 25-932): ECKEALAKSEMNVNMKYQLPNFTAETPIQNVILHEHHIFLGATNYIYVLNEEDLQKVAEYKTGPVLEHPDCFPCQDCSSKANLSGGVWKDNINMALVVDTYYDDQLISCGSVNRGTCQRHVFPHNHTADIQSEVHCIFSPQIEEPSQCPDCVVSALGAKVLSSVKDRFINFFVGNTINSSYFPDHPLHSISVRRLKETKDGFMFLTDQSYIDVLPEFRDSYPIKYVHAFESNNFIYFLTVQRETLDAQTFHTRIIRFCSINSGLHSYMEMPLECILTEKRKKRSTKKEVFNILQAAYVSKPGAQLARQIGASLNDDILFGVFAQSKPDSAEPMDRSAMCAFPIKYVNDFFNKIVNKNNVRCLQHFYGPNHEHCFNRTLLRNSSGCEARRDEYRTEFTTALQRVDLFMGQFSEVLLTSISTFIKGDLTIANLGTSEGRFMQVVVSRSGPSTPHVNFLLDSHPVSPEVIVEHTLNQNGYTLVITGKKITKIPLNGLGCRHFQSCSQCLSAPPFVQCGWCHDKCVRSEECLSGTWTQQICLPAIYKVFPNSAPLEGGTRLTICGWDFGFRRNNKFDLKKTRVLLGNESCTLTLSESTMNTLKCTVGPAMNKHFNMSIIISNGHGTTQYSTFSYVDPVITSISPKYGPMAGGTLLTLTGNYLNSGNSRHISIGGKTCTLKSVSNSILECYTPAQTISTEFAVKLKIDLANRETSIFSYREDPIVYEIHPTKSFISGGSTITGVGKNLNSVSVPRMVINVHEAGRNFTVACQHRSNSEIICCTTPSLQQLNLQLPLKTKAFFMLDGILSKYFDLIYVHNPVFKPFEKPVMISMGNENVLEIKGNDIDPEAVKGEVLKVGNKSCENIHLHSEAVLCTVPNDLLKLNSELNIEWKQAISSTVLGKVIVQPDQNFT
Test details: phage ELISA on cMet-Fc, competitor HGF 100 ng/mL
Experimental endpoint: % of binding in the absence of HGF (%)
All answers are understood in %, so give the number only.

Some binders with known % of binding in the absence of HGF results, for comparison:
AGHFECPKHQYMCDMPGT [465-D04 peptide-displaying phage (SEQ ID NO: 042)] ... 77
AQWPHDGLVHWGEVIMLRF [117-F04 peptide-displaying phage (SEQ ID NO: 479)] ... 93

// next entry
In: Which % of binding in the absence of HGF value belongs to AGNWICNLSEMRCYPKGT [456-E04 peptide-displaying phage (SEQ ID NO: 013)] ?
Out: 82
